SYSTEM_UNDER_TEST: cytochrome bd-I (Escherichia coli)
Construct: made in house; host or cells: E. coli C43 (DE3) Δ bo3 (CLY)
METHOD: Oxygen reductase activity assay (Clark-type electrode) with purified cytochrome bd-I
Type: biochemical, E. coli
CONDITION_NOTES: compound 250 µM, 200 µM ubiquinone-1, 5 mM dithiothreitol, 30 nM enzyme, RT, 100% = DMSO; mean ± S.E.M. (n=3); read-out: Rest activity in % of control activity bd-I
// remaining activity at 250 µM lookup, one value per entry
Your answer is read as %, so omit the unit and give the number.

COMPOUND | SYSTEM_UNDER_TEST | UNIT_TEXT | remaining activity at 250 µM
CCCCCCCc1c(CC)[nH]c2ccccc2c1=O [AD7-2] | cytochrome bd-I (Escherichia coli) | % | 1.89
CCCCc1c(C)[nH]c2ccccc2c1=O [AD4-1] | cytochrome bd-I (Escherichia coli) | % | 5.8
CCCCCCCCCCCc1[nH]c2ccccc2c(=O)c1CCC [AD3-11] | cytochrome bd-I (Escherichia coli) | % | 0.453
CCCCCCCCc1c(C)[nH]c2ccccc2c1=O [AD8-1] | cytochrome bd-I (Escherichia coli) | % | 3.59

Read the next record carefully.
CCCCCCCc1cc(O)c2ccccc2[n+]1[O-] [HQNO, 2-heptyl-4-quinolinol 1-oxide, reference compound] on cytochrome bd-I (Escherichia coli) gives remaining activity at 250 µM = 7.29

###

// pKi collected for cytochrome bd-I (Escherichia coli, UniProt P0ABJ9)
Reminder that pKi means the negative base-10 logarithm of the concentration expressed in mol/L.

Study these solved cases before continuing.
COMPOUND | pKi
CCCCCCCc1cc(O)c2ccccc2[n+]1[O-] [HQNO, 2-heptyl-4-quinolinol 1-oxide, reference compound] | 5.44
CCCCCCCCCCc1c(C)c(=O)c2ccccc2n1O | 7.09
CCCCCCCCCCCc1c(CCCC)c(=O)c2ccccc2n1O | 6.97

Sure, the documented pKi for `CCCCCCCCCCCc1c(CC)c(=O)c2ccccc2n1O` is 7.47

###

SYSTEM_UNDER_TEST: cytochrome bd-I (Escherichia coli, UniProt P0ABJ9)
Construct: made in house; host or cells: E. coli C43 (DE3) Δ bo3 (CLY)
Sequence (P0ABJ9 whole entry): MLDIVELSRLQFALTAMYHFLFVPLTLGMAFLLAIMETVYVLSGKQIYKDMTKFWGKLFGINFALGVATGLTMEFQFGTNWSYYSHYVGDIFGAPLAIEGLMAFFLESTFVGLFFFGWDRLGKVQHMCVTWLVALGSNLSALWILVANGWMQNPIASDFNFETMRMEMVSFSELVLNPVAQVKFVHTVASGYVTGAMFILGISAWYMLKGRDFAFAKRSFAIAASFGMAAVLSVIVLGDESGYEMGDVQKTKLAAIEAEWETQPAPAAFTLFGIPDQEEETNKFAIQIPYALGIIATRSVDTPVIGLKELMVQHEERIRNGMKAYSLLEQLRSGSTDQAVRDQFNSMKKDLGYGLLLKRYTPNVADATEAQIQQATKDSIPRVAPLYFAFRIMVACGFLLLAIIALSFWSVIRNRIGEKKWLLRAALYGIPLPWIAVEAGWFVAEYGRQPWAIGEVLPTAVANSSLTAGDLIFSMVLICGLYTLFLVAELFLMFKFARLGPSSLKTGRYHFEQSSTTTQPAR
Sequence (P0ABK2 whole entry, further chain): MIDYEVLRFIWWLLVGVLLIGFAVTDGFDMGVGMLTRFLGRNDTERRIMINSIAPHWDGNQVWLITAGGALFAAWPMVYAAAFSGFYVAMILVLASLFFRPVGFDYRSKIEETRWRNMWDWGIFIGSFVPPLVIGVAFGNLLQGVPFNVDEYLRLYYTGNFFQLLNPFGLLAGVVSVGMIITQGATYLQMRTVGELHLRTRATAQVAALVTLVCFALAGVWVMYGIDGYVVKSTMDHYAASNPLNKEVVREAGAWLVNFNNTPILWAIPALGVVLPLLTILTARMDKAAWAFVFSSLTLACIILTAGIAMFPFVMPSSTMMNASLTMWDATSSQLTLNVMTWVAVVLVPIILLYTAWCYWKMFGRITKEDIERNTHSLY
Sequence (P56100 whole entry, further chain): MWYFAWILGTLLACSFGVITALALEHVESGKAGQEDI
METHOD: Oxygen reductase activity assay (Clark-type electrode) with purified cytochrome bd-I
Assay type: biochemical, E. coli
CONDITION_NOTES: compound 250 µM, 200 µM ubiquinone-1, 5 mM dithiothreitol, 30 nM enzyme, RT, 100% = DMSO; mean ± S.E.M. (n=3); read-out: Rest activity in % of control activity bd-I
Label 1 when remaining activity at 250 µM is strictly below 3%; otherwise label -1.

Worked examples follow.
COMPOUND | CATEGORY
CCCCCCc1c(C)[nH]c2ccccc2c1=O [AD6-1] | -1
COc1ccc2[nH]c3c(c(=O)c2c1)CCCC3 [Compound 7-MTHA, reference compound] | -1
CCCCCCCCCCCc1cc(=O)c2ccccc2[nH]1 [AD0-11] | -1
CCCCCCCCCCCc1c(CC)c(=O)c2ccccc2n1O [AC2-11] | 1
Cc1cc(O)c2ccccc2n1 [Compound 2-MQ, 2-methyl-4-quinolinol, reference compound] | -1
CCCCCCCCCCc1c(C)c(=O)c2ccccc2n1O [AC1-10] | 1

Inquiry: I'd appreciate it if you could check whether CCCCCc1c(C)[nH]c2ccccc2c1=O [AD5-1] has remaining activity at 250 µM smaller than 3%.
Reply text: -1

Inquiry: Criterion: remaining activity at 250 µM strictly below 3%. Is it met by CC(C)=CCC/C(C)=C/CC/C(C)=C/Cc1c(C)[nH]c2ccccc2c1=O [AurD, Aurachin D] ?
Reply text: -1

Inquiry: Hi there! Is remaining activity at 250 µM for CCCCCCCCCCCc1c(CCCC)c(=O)c2ccccc2n1O [AC4-11] below 3%, do you know?
Reply text: 1
